Molecular target: T1, BSA heat-denatured for 5 minutes (bovine, UniProt P02769 25-607)
T1 construct: Autoclaved at 110 C for 5 min; also called heat denaturation period 5 min
T1 sequence (P02769 25-607 limits assumed): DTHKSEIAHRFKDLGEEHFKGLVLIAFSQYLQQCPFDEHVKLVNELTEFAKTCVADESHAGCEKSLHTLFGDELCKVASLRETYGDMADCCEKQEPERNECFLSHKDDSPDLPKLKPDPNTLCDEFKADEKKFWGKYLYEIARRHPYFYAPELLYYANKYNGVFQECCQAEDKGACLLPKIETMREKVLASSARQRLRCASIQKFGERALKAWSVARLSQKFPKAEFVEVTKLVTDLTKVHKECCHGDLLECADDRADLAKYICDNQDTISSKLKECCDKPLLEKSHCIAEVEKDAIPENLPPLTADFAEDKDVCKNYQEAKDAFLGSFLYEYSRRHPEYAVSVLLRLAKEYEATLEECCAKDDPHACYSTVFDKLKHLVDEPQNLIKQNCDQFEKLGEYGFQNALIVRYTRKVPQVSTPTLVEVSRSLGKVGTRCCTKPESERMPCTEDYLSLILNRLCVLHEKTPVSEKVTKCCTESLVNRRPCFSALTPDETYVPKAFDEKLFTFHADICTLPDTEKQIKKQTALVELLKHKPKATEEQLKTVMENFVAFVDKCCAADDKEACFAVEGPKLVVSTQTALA
Experiment: turbidity (OD550), Hill plot analysis; heat denaturation period 5 min
quantity: Kd
Write the numeric value and follow it with the unit.

input: Given the entry SYSMEHFRWGKPVGKKRRPVKVYP (also called basic peptide of interest) [partial ACTH peptide consisting of the amino acids of positions 1 to 24 of ACTH] , report its measured Kd.
output: 33 µM
